Consider the following variants; for each one, report its protein stability index.
B1: HDAC6 (parent)
chain: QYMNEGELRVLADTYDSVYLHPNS

variants of: B1; experiment: protein stability index of a GFP-peptide fusion (GPS, HEK-293T) (PSI 1-6); higher = more stable; conditions: c terminus: a fixed tail appended;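 also: lentivirally expressed fusions sorted by FACS into six bins by GFP to DsRed ratio, PSI derived from sequencing read proportions per bin multiplied by bin number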
Give bare numbers.

// solved cases for protein stability index follow
# variant.annotation, protein stability index
measured = [
    ("N23C", 1.99),
    ("L20F", 2),
    ("Q1S", 2.04),
    ("E5C", 1.96),
]

Q) GET /values?readout=protein stability index&item= "D13V"
A) 1.97
